System: SEM cells
measurement-description: cell viability relative to DMSO control; higher = less cytotoxic
stated-conditions: HPLM + 10% dialyzed FBS; 48 h; 0.0632 µM
Entries whose cell viability is below 70% take Condition met; entries at or above 70% take Condition not met.

// below: answered compounds
>>> df
                                   compound        label_value
0       COC(=O)Nc1nc2cc(Sc3ccccc3)ccc2[nH]1  Condition not met
1         O=C(O)C(=O)Nc1cccc(-c2nnn[nH]2)c1  Condition not met
2  C=C1C(=O)O[C@@H]2[C@H]3O[C@]3(C)CC/C=C(\C)CC[C@@H]12  Condition not met
3  Cc1ccnc(N[S+](=O)([O-])c2ccc(NC(=O)Nc3ccc([S+](=O)([O-])Nc4nccc(C)n4)cc3)cc2)n1  Condition not met
4  CCC1=C2CN3C(=O)\C4=C(/C=C3/C2=NC5=CC=C(O)C=C15)[C@@](O)(CC)C(=O)OC4      Condition met
5  CCNC(=O)c1noc(-c2cc(C(C)C)c(O)cc2O)c1-c1ccc(CN2CCOCC2)cc1      Condition met

Query: Field: below-cutoff. Rule: recorded cell viability strictly less than 70%. Subject: Oc1ccc(C2CNCCc3c2cc(O)c(O)c3Cl)cc1 (stereo unspecified)
Response: Condition not met

Query: Field: below-cutoff. Rule: recorded cell viability strictly less than 70%. Subject: CCCC[N+]1(C)[C@@H]2CC(OC(=O)[C@H](CO)c3ccccc3)C[C@H]1[C@@H]1O[C@@H]12 (stereo partly specified)
Response: Condition not met

Query: Field: below-cutoff. Rule: recorded cell viability strictly less than 70%. Subject: `COc1cc2nc(N3CCN(C(=O)c4ccco4)CC3)nc(N)c2cc1OC`
Response: Condition not met

Query: Field: below-cutoff. Rule: recorded cell viability strictly less than 70%. Subject: COc1ccc(CC2SC(=O)NC2=O)cc1C(=O)NCc1ccc(C(F)(F)F)cc1 (stereo unspecified)
Response: Condition not met

---

The compounds listed here are annotated with their cell viability.
System: SEM cells
measurement-description: cell viability relative to DMSO control; higher = less cytotoxic
stated-conditions: RPMI 5 mM glucose + 10% FBS; 48 h; 0.569 µM
Please reply with the bare figure in % and do not write the unit itself.

In [3]: df
Out[3]:
                                   compound   val
0  C=C1C(=O)O[C@@H]2[C@H]3O[C@]3(C)CC/C=C(\C)CC[C@@H]12  69.5

Short answer for `CC(C)(OCc1nn(Cc2ccccc2)c2ccccc12)C(=O)O` : cell viability was 94

Short answer for `CCOC\1=C(/C(=O)NC2=CC=C(OC3=C(Cl)C(=NC=C3)N)C(=C2)F)C(=O)N(\C=C1)C4=CC=C(F)C=C4` : cell viability was 75.5

Short answer for `CCC[S+](=O)([O-])Nc1ccc(F)c(C(=O)c2c[nH]c3ncc(-c4ccc(Cl)cc4)cc23)c1F` : cell viability was 128

Short answer for `O=C(O)c1nn(Cc2ccc(Cl)cc2Cl)c2ccccc12` : cell viability was 86.2

Short answer for Cc1ccc([S+](=O)([O-])NC(=O)NN2CC3CCCC3C2)cc1 (stereo unspecified) : cell viability was 80.8

Short answer for `O=C1N\N=C(\C[C@@H]2CCN(C2)C(=O)C3CC3)N1C4=CC=C(C=C4)C5=CC=C6OC=CC6=C5` : cell viability was 110

Short answer for `COC1=C(CC=C(C)C)C2=C(\C=C/C(=O)O2)C=C1` : cell viability was 100

Short answer for `CCCCc1oc2ccccc2c1C(=O)c1cc(I)c(OCCN(CC)CC)c(I)c1` : cell viability was 136

Short answer for `CC(C)C1=N[N](C\2=C1C(=O)N\C(=N2)CC3=CC=C(OCCO)C=C3)C4=C(Cl)C=CC=C4Cl` : cell viability was 6.73

Short answer for `CCOC(=O)c1c(/C(C#N)=C\N)c2ccc(Cl)c(Cl)c2n1C` : cell viability was 97.8
